# assay name: Cmax in rat at 3 mg/kg, po by LC-MS method
# Assay type: ADME, organism-based
# Parameters: dose 3 mg/kg, route oral
# test conditions: in vivo
measurement name: Cmax (nM)
Answer with a number only, understood to be in nM.

Which Cmax is reported for this compound? COC(=O)N[C@H](C(=O)N1CCC[C@H]1c1nc2cc([C@H]3CC[C@H](c4cc5nc([C@@H]6CCCN6C(=O)[C@@H](NC(=O)OC)[C@@H](C)OC)[nH]c5cc4F)N3c3cc(F)c(N4CCC(c5ccc(F)cc5)CC4)c(F)c3)c(F)cc2[nH]1)[C@@H](C)OC [PIBRENTASVIR] 250

###

# assay name: Oral bioavailability in dog at 2.5 mg/kg by LC-MS method
# Assay type: ADME, organism-based, Canis lupus familiaris
# test conditions: in vivo
measurement name: bioavailability (%)
Answer with a number only, understood to be in %.

Which bioavailability is reported for this compound? COC(=O)N[C@H](C(=O)N1CCC[C@H]1c1nc2cc([C@H]3CC[C@H](c4cc5nc([C@@H]6CCCN6C(=O)[C@@H](NC(=O)OC)[C@@H](C)OC)[nH]c5cc4F)N3c3cc(F)c(N4CCC(c5ccc(F)cc5)CC4)c(F)c3)c(F)cc2[nH]1)[C@@H](C)OC 29.8

###

# assay name: Solubility of the compound by CLND method
# Format: physicochemical
measurement name: solubility kinetic (µM)
Answer with a number only, understood to be in µM.

Check out these entries, answers already filled in.
INSERT INTO results (sample_smiles, measurement_name, recorded_result) VALUES
  ('COC(=O)N[C@H](C(=O)N1CCC[C@H]1c1nc2cc([C@H]3CC[C@H](c4ccc5[nH]c([C@@H]6CCCN6C(=O)[C@@H](NC(=O)OC)C(C)C)nc5c4)N3c3cc(F)c(N4CCC(c5ccccc5)CC4)c(F)c3)ccc2[nH]1)C(C)C', 'solubility kinetic', 1.1),
  ('COC(=O)N[C@H](C(=O)N1CCC[C@H]1c1nc2ccc([C@H]3CC[C@H](c4ccc5nc([C@@H]6CCCN6C(=O)[C@@H](NC(=O)OC)C(C)C)[nH]c5c4)N3c3ccc(C(C)(C)C)cc3)cc2[nH]1)C(C)C', 'solubility kinetic', 1.6),
  ('COC(=O)N[C@H](C(=O)N1CCC[C@H]1c1nc2ccc([C@H]3CC[C@H](c4ccc5nc([C@@H]6CCCN6C(=O)[C@@H](NC(=O)OC)C(C)C)[nH]c5c4)N3c3ccc(N4CCC(c5ccccc5)CC4)cc3)cc2[nH]1)C(C)C', 'solubility kinetic', 0.82);

Please examine the following record next.
Which solubility kinetic is reported for this molecule? COC(=O)N[C@H](C(=O)N1CCC[C@H]1c1nc2cc([C@H]3CC[C@H](c4ccc5[nH]c([C@@H]6CCCN6C(=O)[C@@H](NC(=O)OC)C(C)C)nc5c4)N3c3cc(F)c(N4CCC(c5ccc(F)cc5)CC4)c(F)c3)ccc2[nH]1)C(C)C 0.9

###

# Tested on: Nonstructural protein 5A (Hepatitis C virus), Q5L478 [Y93H]
# Sequence (Q5L478 entry or part of it Y93H): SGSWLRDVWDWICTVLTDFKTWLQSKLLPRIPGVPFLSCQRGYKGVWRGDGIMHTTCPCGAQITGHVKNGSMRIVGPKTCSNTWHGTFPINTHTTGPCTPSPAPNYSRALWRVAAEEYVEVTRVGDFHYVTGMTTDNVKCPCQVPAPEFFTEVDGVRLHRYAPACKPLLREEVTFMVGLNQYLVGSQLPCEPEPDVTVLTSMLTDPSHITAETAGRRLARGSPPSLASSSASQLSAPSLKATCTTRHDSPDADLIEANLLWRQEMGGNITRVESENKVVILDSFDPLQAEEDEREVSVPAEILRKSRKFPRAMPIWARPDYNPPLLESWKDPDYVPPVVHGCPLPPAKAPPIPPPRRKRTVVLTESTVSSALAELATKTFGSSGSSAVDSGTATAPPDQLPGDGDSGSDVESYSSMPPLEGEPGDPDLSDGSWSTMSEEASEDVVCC
# assay name: Inhibition of NS5A Y93H mutant in HuH7 cell infected HCV genotype 1a H77 assessed as decrease in viral replication after 4 days by luciferase reporter gene assay relative to wild type protein
# test conditions: Hepatitis C virus (isolate H77)
Decision: fold change (FC) compared against 20; not below it gives class 1, below it gives class 0.

Worked cases, answers included:
INSERT INTO results (sample_smiles, category_label) VALUES
  ('COC(=O)N[C@H](C(=O)N1CCC[C@H]1c1nc2ccc([C@H]3CC[C@H](c4ccc5nc([C@@H]6CCCN6C(=O)[C@@H](NC(=O)OC)C(C)C)[nH]c5c4)N3c3ccc(C(C)(C)C)cc3)cc2[nH]1)C(C)C', 'class 1'),
  ('COC(=O)N[C@H](C(=O)N1CCC[C@H]1c1nc2ccc([C@H]3CC[C@H](c4ccc5nc([C@@H]6CCCN6C(=O)[C@@H](NC(=O)OC)C(C)C)[nH]c5c4)N3c3cc(F)c(N4CCC(c5ccccc5)CC4)c(F)c3)cc2[nH]1)C(C)C', 'class 1'),
  ('COC(=O)N[C@H](C(=O)N1CCC[C@H]1c1nc2cc([C@H]3CC[C@H](c4ccc5[nH]c([C@@H]6CCCN6C(=O)[C@@H](NC(=O)OC)C(C)C)nc5c4)N3c3cc(F)c(N4CCCCC4)c(F)c3)ccc2[nH]1)C(C)C', 'class 1');

Dear colleague, could you confirm whether COC(=O)N[C@H](C(=O)N1CCC[C@H]1c1nc2cc(F)c([C@H]3CC[C@H](c4cc5[nH]c([C@@H]6CCCN6C(=O)[C@@H](NC(=O)OC)[C@@H](C)OC)nc5cc4F)N3c3cc(F)c(N4CCC(c5ccccc5)CC4)c(F)c3)cc2[nH]1)[C@@H](C)OC has fold change (FC) at or above 20? class 0

Dear colleague, could you confirm whether COC(=O)N[C@H](C(=O)N1CCC[C@H]1c1nc2ccc([C@H]3CC[C@H](c4ccc5nc([C@@H]6CCCN6C(=O)[C@@H](NC(=O)OC)C(C)C)[nH]c5c4)N3c3ccc(C4CCCCC4)cc3)cc2[nH]1)C(C)C has fold change (FC) at or above 20? class 1

Dear colleague, could you confirm whether COC(=O)N[C@H](C(=O)N1CCC[C@H]1C(=O)Nc1ccc([C@@H]2CC[C@@H](c3ccc(NC(=O)[C@@H]4CCCN4C(=O)[C@@H](NC(=O)OC)C(C)C)cc3)N2c2ccc(C(C)(C)C)cc2)cc1)C(C)C has fold change (FC) at or above 20? class 1

Dear colleague, could you confirm whether COC(=O)N[C@H](C(=O)N1CCC[C@H]1c1nc2cc(F)c([C@H]3CC[C@H](c4cc5[nH]c([C@@H]6CCCN6C(=O)[C@@H](NC(=O)OC)C6CCOCC6)nc5cc4F)N3c3cc(F)c(N4CCC(c5ccccc5)CC4)c(F)c3)cc2[nH]1)C1CCOCC1 has fold change (FC) at or above 20? class 0

Dear colleague, could you confirm whether COC(=O)N[C@H](C(=O)N1CCC[C@H]1c1nc2cc(F)c([C@H]3CC[C@H](c4cc5[nH]c([C@@H]6CCCN6C(=O)[C@@H](NC(=O)OC)C6CCOCC6)nc5cc4F)N3c3cc(F)c(N4CCC(c5ccc(F)cc5)CC4)c(F)c3)cc2[nH]1)C1CCOCC1 has fold change (FC) at or above 20? class 0

The values you see were collected from ChEMBL document CHEMBL4177761.
